Source: ChEMBL document CHEMBL1201862

target: High affinity choline transporter 1 (Homo sapiens, UniProt Q9GZV3); assay: human choline transporter blockers, potency – cell-based, 5-point CRC, membrane potential dye, dose response (AID 504840); type: functional
Sequence (Q9GZV3 whole entry): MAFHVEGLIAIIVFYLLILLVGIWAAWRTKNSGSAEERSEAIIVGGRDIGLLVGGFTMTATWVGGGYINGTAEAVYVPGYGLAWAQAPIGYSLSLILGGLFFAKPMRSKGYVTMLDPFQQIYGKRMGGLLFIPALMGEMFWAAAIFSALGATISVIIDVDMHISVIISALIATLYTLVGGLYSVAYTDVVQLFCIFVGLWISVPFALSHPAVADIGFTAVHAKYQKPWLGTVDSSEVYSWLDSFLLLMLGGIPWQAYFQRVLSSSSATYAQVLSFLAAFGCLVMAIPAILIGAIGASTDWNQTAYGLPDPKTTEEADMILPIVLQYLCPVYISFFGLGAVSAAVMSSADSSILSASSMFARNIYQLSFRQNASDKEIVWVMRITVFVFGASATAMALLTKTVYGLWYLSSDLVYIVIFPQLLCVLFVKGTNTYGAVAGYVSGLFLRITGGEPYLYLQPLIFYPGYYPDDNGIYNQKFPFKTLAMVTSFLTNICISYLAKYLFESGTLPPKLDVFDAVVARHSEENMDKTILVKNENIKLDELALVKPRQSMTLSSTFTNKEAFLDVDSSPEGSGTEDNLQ
Active and inactive are the calls of the source.
Overview of recorded IC50 for various compounds

Solved entries:
compound	reading
NC(=O)COC(=O)c1ccc(Cl)c(S(=O)(=O)N2CCN(c3ccc(F)cc3)CC2)c1	13.8 µM (active)
Cc1nccn1CC1CCc2c(c3ccccc3n2C)C1=O (stereo not given)	1.67 µM (active)
Cn1c(=O)c(C#N)c(-c2ccc(F)cc2)c2cc(C(=O)c3cc(Cl)cc(Cl)c3O)cnc21	6.95 µM (active)
O=C(O)c1cnn(-c2nc(-c3cccc([N+](=O)[O-])c3)cs2)c1C(F)(F)F	11 µM (active)

Lab note: next compound to report on.
Task: Need IC50 of Cc1nn2c(NCCOCCO)c3c(nc2c1-c1ccccc1)CCCC3 , thanks.
Result: 3.43 µM (active)

----------
molecular target: RNA-binding protein pos-1 (Caenorhabditis elegans); test: disruptors of C. elegans POS-1 RNA interaction – biochemical, fluorescence polarization, dose response (AID 1964);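 further: purified POS-1 fused to maltose binding protein made in E. coli; potency of compounds blocking POS-1 binding to fluorescent RNA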
Sequence (G5EF15 whole entry, the tested form may be a part): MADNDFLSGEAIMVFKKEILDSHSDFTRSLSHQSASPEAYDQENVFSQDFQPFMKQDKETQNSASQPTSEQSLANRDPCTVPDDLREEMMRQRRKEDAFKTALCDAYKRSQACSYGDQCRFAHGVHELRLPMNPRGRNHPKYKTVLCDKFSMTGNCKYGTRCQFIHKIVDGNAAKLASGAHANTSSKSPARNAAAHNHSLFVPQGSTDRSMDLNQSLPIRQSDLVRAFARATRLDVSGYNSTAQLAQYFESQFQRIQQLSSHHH
Overview of recorded EC50 for various molecules

molecule	assaySystem	EC50
CC(C)(C)c1nn(-c2ccccc2)c2[nH]c(=O)c(CNCc3ccco3)cc12	RNA-binding protein pos-1 (Caenorhabditis elegans)	> 300 µM (not active)

Lab note: next molecule to report on.
Task: Need EC50 of O=C1c2cccc3c(O)ccc(c23)C(=O)N1c1ccc(Cl)cc1 , thanks.
Result: 7.11 µM (inconclusive)

----------
assay: DRD fibroblast viability loss – cell-based, non-viral oncogenic, luminescence, dose response (AID 1934); assay type: functional; conditions: Homo sapiens
Active and inactive are the calls of the source.
readoutLabel: EC50

Solved entries:
molecule	reading
O=C(NCc1cccnc1)c1ccc(NC(=O)c2ccc(Br)cc2)cc1	> 150 µM (not active)
CCOC(=O)Cc1ccc(NC(=O)c2ccc(C(C)(C)C)cc2)cc1	49.5 µM (active)
CCCCC(CC)CN1C(=O)/C(=C/c2ccncc2)SC1=S (centres undefined)	> 150 µM (not active)

Lab note: next molecule to report on.
Task: Need EC50 of Cc1cc(N2CCN(Cc3cn(C)nc3-c3ccccc3F)CC2)cc(C)n1 , thanks.
Result: 16.3 µM (inconclusive)

----------
target: Voltage-gated N-type calcium channel alpha-1B subunit/Amyloid beta A4 precursor protein-binding family A member 1 (Homo sapiens, UniProt Q00975+Q02410); type: protein assay
Sequence (Q00975 whole entry): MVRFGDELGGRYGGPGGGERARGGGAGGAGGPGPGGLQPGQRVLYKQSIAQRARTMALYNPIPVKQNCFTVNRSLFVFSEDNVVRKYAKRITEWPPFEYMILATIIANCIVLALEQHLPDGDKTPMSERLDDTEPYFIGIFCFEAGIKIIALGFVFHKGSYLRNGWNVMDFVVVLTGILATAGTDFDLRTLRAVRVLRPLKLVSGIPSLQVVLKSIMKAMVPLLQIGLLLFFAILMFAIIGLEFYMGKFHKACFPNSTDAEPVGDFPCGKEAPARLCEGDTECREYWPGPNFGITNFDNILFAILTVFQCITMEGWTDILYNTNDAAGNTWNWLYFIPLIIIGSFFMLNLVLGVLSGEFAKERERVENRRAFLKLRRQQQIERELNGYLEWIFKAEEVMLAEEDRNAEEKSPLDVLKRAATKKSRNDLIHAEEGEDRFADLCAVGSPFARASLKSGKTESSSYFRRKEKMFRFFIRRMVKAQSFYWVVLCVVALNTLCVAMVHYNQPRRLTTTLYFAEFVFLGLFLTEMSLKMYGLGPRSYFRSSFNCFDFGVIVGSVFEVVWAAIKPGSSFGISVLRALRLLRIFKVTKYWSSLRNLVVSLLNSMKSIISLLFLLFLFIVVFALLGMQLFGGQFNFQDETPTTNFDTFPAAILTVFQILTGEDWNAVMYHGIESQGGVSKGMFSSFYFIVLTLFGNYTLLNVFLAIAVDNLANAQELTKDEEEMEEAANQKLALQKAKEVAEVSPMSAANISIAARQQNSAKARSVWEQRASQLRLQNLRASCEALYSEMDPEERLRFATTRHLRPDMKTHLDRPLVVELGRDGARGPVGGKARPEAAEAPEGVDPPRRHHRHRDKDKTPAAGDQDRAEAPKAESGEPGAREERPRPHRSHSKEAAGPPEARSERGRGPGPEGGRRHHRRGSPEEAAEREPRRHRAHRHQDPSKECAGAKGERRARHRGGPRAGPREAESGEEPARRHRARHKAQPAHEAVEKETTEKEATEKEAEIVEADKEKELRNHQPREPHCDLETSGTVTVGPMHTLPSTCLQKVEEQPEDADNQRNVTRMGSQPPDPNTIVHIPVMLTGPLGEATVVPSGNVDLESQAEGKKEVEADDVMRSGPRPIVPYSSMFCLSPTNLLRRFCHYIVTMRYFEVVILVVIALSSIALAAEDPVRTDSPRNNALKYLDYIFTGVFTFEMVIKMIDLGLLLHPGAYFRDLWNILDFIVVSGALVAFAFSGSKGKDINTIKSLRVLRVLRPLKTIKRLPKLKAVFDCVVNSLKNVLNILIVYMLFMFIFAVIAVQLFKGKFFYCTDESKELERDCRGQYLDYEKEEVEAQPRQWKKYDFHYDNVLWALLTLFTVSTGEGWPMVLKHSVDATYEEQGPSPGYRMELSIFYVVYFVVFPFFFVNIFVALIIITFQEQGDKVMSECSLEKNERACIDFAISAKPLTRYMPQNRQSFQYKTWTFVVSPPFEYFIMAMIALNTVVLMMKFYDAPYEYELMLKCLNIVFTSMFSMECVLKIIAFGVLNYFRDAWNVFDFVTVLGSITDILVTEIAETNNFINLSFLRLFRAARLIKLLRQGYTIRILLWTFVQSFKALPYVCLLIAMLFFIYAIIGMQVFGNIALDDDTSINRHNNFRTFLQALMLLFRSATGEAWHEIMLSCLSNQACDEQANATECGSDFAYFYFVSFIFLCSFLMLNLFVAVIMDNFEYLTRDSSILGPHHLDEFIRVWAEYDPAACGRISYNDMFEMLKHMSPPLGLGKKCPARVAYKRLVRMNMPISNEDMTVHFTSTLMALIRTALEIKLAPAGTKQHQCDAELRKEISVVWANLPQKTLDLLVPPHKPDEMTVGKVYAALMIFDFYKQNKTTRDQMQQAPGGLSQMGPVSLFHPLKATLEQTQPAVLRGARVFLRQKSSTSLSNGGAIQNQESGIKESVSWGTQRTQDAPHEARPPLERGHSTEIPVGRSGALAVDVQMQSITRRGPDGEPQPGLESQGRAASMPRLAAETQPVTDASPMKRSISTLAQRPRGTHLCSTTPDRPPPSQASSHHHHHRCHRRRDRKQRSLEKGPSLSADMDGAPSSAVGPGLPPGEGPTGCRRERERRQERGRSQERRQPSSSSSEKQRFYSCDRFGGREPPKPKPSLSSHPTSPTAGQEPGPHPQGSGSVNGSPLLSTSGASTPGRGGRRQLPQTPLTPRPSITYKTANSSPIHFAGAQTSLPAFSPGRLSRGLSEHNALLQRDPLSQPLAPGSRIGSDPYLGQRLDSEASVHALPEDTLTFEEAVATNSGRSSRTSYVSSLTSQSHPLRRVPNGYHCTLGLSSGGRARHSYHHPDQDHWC
Sequence (Q02410 whole entry): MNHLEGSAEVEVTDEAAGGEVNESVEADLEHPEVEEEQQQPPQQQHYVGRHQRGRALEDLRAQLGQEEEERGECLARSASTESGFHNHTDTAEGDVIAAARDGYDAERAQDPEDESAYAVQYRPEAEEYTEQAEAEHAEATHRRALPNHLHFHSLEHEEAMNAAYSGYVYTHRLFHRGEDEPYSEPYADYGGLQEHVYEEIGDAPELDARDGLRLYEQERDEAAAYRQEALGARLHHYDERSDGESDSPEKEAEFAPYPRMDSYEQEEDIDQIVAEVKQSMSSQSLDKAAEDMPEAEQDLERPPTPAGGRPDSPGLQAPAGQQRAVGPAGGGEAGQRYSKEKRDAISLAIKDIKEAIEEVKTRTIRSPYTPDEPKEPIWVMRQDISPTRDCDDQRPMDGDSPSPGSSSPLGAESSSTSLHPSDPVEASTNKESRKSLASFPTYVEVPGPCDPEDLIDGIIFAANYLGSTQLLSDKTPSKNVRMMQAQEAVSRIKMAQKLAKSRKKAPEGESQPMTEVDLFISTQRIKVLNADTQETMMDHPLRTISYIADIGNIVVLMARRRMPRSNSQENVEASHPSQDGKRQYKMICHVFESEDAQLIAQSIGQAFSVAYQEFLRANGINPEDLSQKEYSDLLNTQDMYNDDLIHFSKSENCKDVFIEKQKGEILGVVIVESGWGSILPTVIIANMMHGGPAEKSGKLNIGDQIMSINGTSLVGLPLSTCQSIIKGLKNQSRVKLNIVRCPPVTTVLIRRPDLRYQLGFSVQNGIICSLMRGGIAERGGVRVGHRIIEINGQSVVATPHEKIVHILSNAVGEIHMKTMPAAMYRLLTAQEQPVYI
Activity calls are given as the source filed them.
Give your call using only these classes: active, inactive

These recorded examples may help you get a feel for the data.
molecule	qualitativeLabel
CCN1C(=O)N/C(=C/c2ccc(C)o2)C1=O	active
COc1ccc(OC)c(CCNC(=O)Cn2sc3nc(C)cc(C)c3c2=O)c1	inactive
COc1cc(/N=c2\ssnc2Cl)cc(OC)c1OC	active

From here, focus on the item given below.
Task: Lab log entry: Cc1ccc(Cn2c(C(C)Nc3nc(-c4ccc(C)cc4)cs3)nc3cc(Cl)c(Cl)cc32)cc1 (stereo not drawn) — outcome as called in the assay?
Result: inactive

----------
biological target: Voltage-gated N-type calcium channel alpha-1B subunit/Amyloid beta A4 precursor protein-binding family A member 1 (Homo sapiens, UniProt Q00975+Q02410); format: protein assay
Active and inactive are the calls of the source.
readoutLabel: IC50

Solved entries:
compound	reading
O=C(CCS(=O)(=O)c1ccccc1)Nc1ccc(-c2nc3ccccc3s2)cc1	12.5 µM (active)
COc1cc(/N=c2\ssnc2Cl)cc(OC)c1OC	10.8 µM (active)
CCN1C(=O)N/C(=C/c2ccc(C)o2)C1=O	3.29 µM (active)
Cc1ccc(Cn2c(C(C)Nc3nc(-c4ccc(C)cc4)cs3)nc3cc(Cl)c(Cl)cc32)cc1 (stereo not drawn)	4.57 µM (active)
Cc1ccc(N2CSC3=C(C#N)C(c4cccs4)CC(=O)N3C2)cc1 (stereo not drawn)	3.74 µM (active)

Task: Need IC50 of COc1ccc(NC(=O)c2cc3ccc4c5ccccc5[nH]c4c3cc2O)cc1 , thanks.
Result: 9.55 µM (active)

Task: Need IC50 of COc1ccc(OC)c(CCNC(=O)Cn2sc3nc(C)cc(C)c3c2=O)c1 , thanks.
Result: 5.66 µM (active)

Task: Need IC50 of N#Cc1c(O)nsc1Nc1ccccc1Cl , thanks.
Result: 4.76 µM (active)
